- System: RA model
- experimentalDetails: Rheumatoid arthritis (RA) model (Freund's adjuvant complete)
- Format: in vivo, Wistar rats
- measurementConditions: RA rats; gavage 10 mg/kg once a day, 21 days
endpointName: Swelling degree (right toe joint)
Field note: include the unit after the figure.

Before answering, review these 3 worked examples.
1. O=C(c1ccc(-c2ccccc2Cl)cc1)N(c1ncccc1Cl)[C@@H]1CCCNC1 [CLY-36]; 9.3 ± 0.51 mm
2. CN1CCC[C@@H](N(C(=O)c2ccc(-n3nnc4cccnc43)cc2)c2ncccc2Cl)C1 [CLY-1]; 9.7 ± 0.68 mm
3. O=C(c1ccc(-n2nnc3cccnc32)cc1)N(c1ncccc1Cl)[C@@H]1CCNC1 [CLY-8]; 9.5 ± 0.72 mm

Could you now consider this next molecule?
Return the recorded Swelling degree (right toe joint) value; entry: CCN1CCC[C@@H](N(C(=O)c2ccc(-n3nnc4cccnc43)cc2)c2ncccc2Cl)C1 [CLY-2]
9.4 ± 0.53 mm
